test.target: Equilibrative nucleoside transporter 1 (Homo sapiens)
Sequence (Q99808 whole entry): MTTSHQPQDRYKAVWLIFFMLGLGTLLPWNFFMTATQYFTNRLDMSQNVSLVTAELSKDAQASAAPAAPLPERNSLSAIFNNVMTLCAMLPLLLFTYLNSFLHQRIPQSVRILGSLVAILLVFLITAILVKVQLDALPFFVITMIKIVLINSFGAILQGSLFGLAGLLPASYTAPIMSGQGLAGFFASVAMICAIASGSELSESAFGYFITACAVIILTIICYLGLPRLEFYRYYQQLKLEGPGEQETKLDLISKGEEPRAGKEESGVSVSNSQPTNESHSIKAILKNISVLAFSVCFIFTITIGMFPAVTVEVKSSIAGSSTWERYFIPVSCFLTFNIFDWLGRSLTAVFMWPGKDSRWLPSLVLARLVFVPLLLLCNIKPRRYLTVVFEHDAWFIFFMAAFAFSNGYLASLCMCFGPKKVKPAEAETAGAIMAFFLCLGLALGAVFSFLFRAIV
pKi: −log10 of the molar value.
pKi values for Equilibrative nucleoside transporter 1 (Homo sapiens), compiled from several publications.
The label depends only on pKi: Criterion met if it is at least 7, Criterion not met if it is smaller.

compound=COc1ccc(CSc2ncnc3c2ncn3[C@@H]2O[C@H](CO)[C@@H](O)[C@H]2O)cc1 test_target="Equilibrative nucleoside transporter 1 (Homo sapiens)" category_label="Criterion met"
compound="CCCNc1nc2c(SCc3ccccc3)ncnc2n1C1O[C@H](CO)[C@@H](O)[C@H]1O (stereo partly specified)" test_target="Equilibrative nucleoside transporter 1 (Homo sapiens)" category_label="Criterion met"
compound=O=[N+]([O-])c1ccc(CSc2ncnc3c2ncn3Cc2cc(F)cc(F)c2)cc1 test_target="Equilibrative nucleoside transporter 1 (Homo sapiens)" category_label="Criterion not met"
compound="OC[C@H]1OC(n2c(N3CCCC3)nc3c(SCc4ccccc4)ncnc32)[C@H](O)[C@@H]1O (stereo partly specified)" test_target="Equilibrative nucleoside transporter 1 (Homo sapiens)" category_label="Criterion not met"
compound="OC[C@H]1OC(n2c(NC3CCCCC3)nc3c(SCc4ccccc4)ncnc32)[C@H](O)[C@@H]1O (stereo partly specified)" test_target="Equilibrative nucleoside transporter 1 (Homo sapiens)" category_label="Criterion met"
compound=Cc1cc(C)c(CSc2ncnc3c2ncn3[C@@H]2O[C@H](CO)[C@@H](O)[C@H]2O)c(C)c1 test_target="Equilibrative nucleoside transporter 1 (Homo sapiens)" category_label="Criterion not met"
compound=N#Cc1ccc(CSc2ncnc3c2ncn3[C@@H]2O[C@H](CO)[C@@H](O)[C@H]2O)cc1 test_target="Equilibrative nucleoside transporter 1 (Homo sapiens)" category_label="Criterion met"
compound=O=[N+]([O-])c1ccc(CSc2ncnc3c2ncn3Cc2ccccc2-c2cccc(O)c2)cc1 test_target="Equilibrative nucleoside transporter 1 (Homo sapiens)" category_label="Criterion not met"
compound=Cc1ccc(CSc2ncnc3c2ncn3[C@@H]2O[C@H](CO)[C@@H](O)[C@H]2O)cc1 test_target="Equilibrative nucleoside transporter 1 (Homo sapiens)" category_label="Criterion met"
compound=OC[C@H]1O[C@@H](n2cnc3c(SCc4ccc(F)cc4)ncnc32)[C@H](O)[C@@H]1O test_target="Equilibrative nucleoside transporter 1 (Homo sapiens)" category_label="Criterion met"
compound=CC(C)(C)c1ccc(CSc2ncnc3c2ncn3[C@@H]2O[C@H](CO)[C@@H](O)[C@H]2O)cc1 test_target="Equilibrative nucleoside transporter 1 (Homo sapiens)" category_label="Criterion not met"
compound=O=[N+]([O-])c1ccc(CSc2ncnc3c2ncn3Cc2ccccc2-c2ccc(C(F)(F)F)cc2)cc1 test_target="Equilibrative nucleoside transporter 1 (Homo sapiens)" category_label="Criterion met"
compound=O=[N+]([O-])c1ccc(CSc2ncnc3c2ncn3Cc2cccc(F)c2)cc1 test_target="Equilibrative nucleoside transporter 1 (Homo sapiens)" category_label="Criterion not met"
compound=O=[N+]([O-])c1cccc(CSc2ncnc3c2ncn3[C@@H]2O[C@H](CO)[C@@H](O)[C@H]2O)c1 test_target="Equilibrative nucleoside transporter 1 (Homo sapiens)" category_label="Criterion met"
compound=N#Cc1cccc(CSc2ncnc3c2ncn3[C@@H]2O[C@H](CO)[C@@H](O)[C@H]2O)c1 test_target="Equilibrative nucleoside transporter 1 (Homo sapiens)" category_label="Criterion met"
compound=OC[C@H]1O[C@@H](n2cnc3c(SCc4cccc(C(F)(F)F)c4)ncnc32)[C@H](O)[C@@H]1O test_target="Equilibrative nucleoside transporter 1 (Homo sapiens)" category_label="Criterion met"
compound=O=[N+]([O-])c1ccc(CSc2ncnc3c2ncn3Cc2cccnc2)cc1 test_target="Equilibrative nucleoside transporter 1 (Homo sapiens)" category_label="Criterion not met"
compound="OC[C@H]1OC(n2c(NC3CCCC3)nc3c(SCc4ccccc4)ncnc32)[C@H](O)[C@@H]1O (stereo partly specified)" test_target="Equilibrative nucleoside transporter 1 (Homo sapiens)" category_label="Criterion met"
compound=O=[N+]([O-])c1ccc(CSc2ncnc3c2nc(N2CCOCC2)n3Cc2ccccc2)cc1 test_target="Equilibrative nucleoside transporter 1 (Homo sapiens)" category_label="Criterion met"
compound=O=[N+]([O-])c1ccc(CSc2ncnc3c2ncn3Cc2ccccc2-c2ccccc2)cc1 test_target="Equilibrative nucleoside transporter 1 (Homo sapiens)" category_label="Criterion not met"
compound=OC[C@H]1O[C@@H](n2cnc3c(SCc4ccc(I)cc4)ncnc32)[C@H](O)[C@@H]1O test_target="Equilibrative nucleoside transporter 1 (Homo sapiens)" category_label="Criterion met"
compound=O=[N+]([O-])c1ccc(CSc2ncnc3c2nc(N2CCCC2)n3Cc2ccccc2)cc1 test_target="Equilibrative nucleoside transporter 1 (Homo sapiens)" category_label="Criterion not met"
compound="CCNc1nc2c(SCc3ccccc3)ncnc2n1C1O[C@H](CO)[C@@H](O)[C@H]1O (stereo partly specified)" test_target="Equilibrative nucleoside transporter 1 (Homo sapiens)" category_label="Criterion met"
compound=OC[C@H]1O[C@@H](n2cnc3c(SCc4cccc(Cl)c4)ncnc32)[C@H](O)[C@@H]1O test_target="Equilibrative nucleoside transporter 1 (Homo sapiens)" category_label="Criterion met"
compound="CCCCCNc1nc2c(SCc3ccccc3)ncnc2n1C1O[C@H](CO)[C@@H](O)[C@H]1O (stereo partly specified)" test_target="Equilibrative nucleoside transporter 1 (Homo sapiens)" category_label="Criterion met"
compound=O=[N+]([O-])c1ccc(CSc2ncnc3c2ncn3Cc2ccccc2O)cc1 test_target="Equilibrative nucleoside transporter 1 (Homo sapiens)" category_label="Criterion met"
compound=OC[C@H]1O[C@@H](n2cnc3c(SCc4ccc(Cl)cc4)ncnc32)[C@H](O)[C@@H]1O test_target="Equilibrative nucleoside transporter 1 (Homo sapiens)" category_label="Criterion met"
compound="OC[C@H]1OC(n2c(N3CCCCC3)nc3c(SCc4ccccc4)ncnc32)[C@H](O)[C@@H]1O (stereo partly specified)" test_target="Equilibrative nucleoside transporter 1 (Homo sapiens)" category_label="Criterion not met"
compound=O=[N+]([O-])c1ccc(CSc2ncnc3c2ncn3Cc2cccc(Cl)c2)cc1 test_target="Equilibrative nucleoside transporter 1 (Homo sapiens)" category_label="Criterion not met"
compound=O=[N+]([O-])c1ccc(CSc2ncnc3c2ncn3Cc2cccc(C(F)(F)F)c2)cc1 test_target="Equilibrative nucleoside transporter 1 (Homo sapiens)" category_label="Criterion not met"
